Where these numbers come from: patent US8946273B2

Target: mutant HIV reverse transcriptases (Human immunodeficiency virus type 1, UniProt P12497, Y775L, cells depend on it)
# EC50 values compiled below

# query: EC50 of entry CCc1ccc(-n2c(Br)nnc2SCC(=O)Nc2ccc(C(=O)NCCC#N)cc2Cl)c2ccccc12 < 50 nM

# repeat for Cc1cc(S(N)(=O)=O)ccc1NC(=O)CSc1nnc(CF)n1-c1c(C)cc(C)c2ccccc12 < 50 nM

Item: O=C(CSc1nnc(Br)n1-c1ccc(C2CC2)cc1OC(F)(F)F)Nc1ccc(S(=O)(=O)O)cc1Cl > 100 nM

Next: Cc1cc(S(N)(=O)=O)ccc1NC(=O)CSc1nnc(Br)n1-c1ccc(C)c2c1CCCC2 < 50 nM

Please do the same for COc1ccc2c(C)ccc(-n3c(Br)nnc3SCC(=O)Nc3ccc(S(N)(=O)=O)cc3Br)c2c1 as well. < 50 nM

Also, CCc1ccc(-n2c(Br)nnc2SCC(=O)Nc2ccc(C(=O)NCC(C)O)cc2Cl)c2ccccc12 (centres unmarked) please. < 50 nM

Repeat for the following compound: CCc1ccc(-n2c(Br)nnc2SCC(=O)Nc2ccc(S(N)(=O)=O)cc2Cl)c2c1CCCC2 < 50 nM

// query: Cc1ccc2c(C)cc(C)c(-n3c(SCC(=O)Nc4ccc(S(N)(=O)=O)cc4C)nnc3C(F)F)c2n1 < 50 nM

Please answer likewise for CCc1ccc(-n2c(Br)nnc2SCC(=O)Nc2ccc(C(=O)NCCOC)cc2Cl)c2ccccc12 < 50 nM

Subsequent entry: Cc1ccc(-n2c(C)nnc2SCC(=O)Nc2ccc(S(N)(=O)=O)cc2Cl)c2c1CCCC2 < 50 nM

Field entry: CCc1ccc(-n2c(Br)nnc2SCC(=O)Nc2ccc(C(=O)O)cc2Br)c2ccccc12 50 to 100 nM

Repeat with CCc1ccc(-n2c(Br)nnc2SCC(=O)Nc2ccc(C(=O)N3CCCCC3CO)cc2Cl)c2ccccc12 (centres unmarked) < 50 nM

Same question, O=C(CSc1nnc(Br)n1-c1ccc(C2CC2)cc1C(F)(F)F)Nc1ccc(C(=O)O)cc1Cl this time > 100 nM

Next: NS(=O)(=O)c1ccc(NC(=O)CSc2nnc(Br)n2-c2ccc3c4c(cccc24)CC3)c(Cl)c1 < 50 nM

Also CCc1cc(C2CC2)ccc1-n1c(Br)nnc1SCC(=O)Nc1ccc(C(=O)O)cc1Cl , if possible. > 100 nM

---

EC50 listing for selected molecules.
Target: mutant HIV reverse transcriptases (Human immunodeficiency virus type 1, UniProt P12497, Y775L, cells depend on it)

NS(=O)(=O)c1ccc(NC(=O)CSc2nnc(Br)n2-c2ccc(C3CC3)c3ccccc23)c(Cl)c1 [compound 42]    < 0.05 µM
Cc1cc(S(N)(=O)=O)ccc1NC(=O)CSc1nnc(C)n1-c1ccc(C)c2c1CCCC2    0.05 to 0.1 µM
Cc1cc(C2CC2)ccc1-n1c(Br)nnc1SCC(=O)Nc1ccc(S(N)(=O)=O)cc1Cl    < 0.05 µM

Please turn your attention to the following entry.
Sample Cc1cc(C2CC2)c2ccccc2c1-n1c(Br)nnc1SCC(=O)Nc1ccc(S(=O)(=O)O)cc1Cl — what was its EC50? > 0.1 µM

---

Target: wild-type HIV reverse transcriptase (Human immunodeficiency virus type 1 group M subtype B)
Construct: wild-type and four mutant HIV reverse transcriptases
Assay: Activity on wild type reverse transcriptase (Table 1 IC50 WT)
Format: biochemical
MEASURED_PARAMETER: IC50

Cc1ccc(-n2c(SCC(=O)Nc3ccc(C(=O)O)cc3Cl)nnc2C(F)F)c2c1CCCC2    < 50 nM
CCc1ccc(-n2c(Br)nnc2SCC(=O)Nc2ccc(C(=O)NCC(=O)O)cc2Cl)c2ccccc12    < 50 nM

Dear colleague, I am looking for the recorded IC50 of the following compound: O=C(CSc1nnc(Br)n1-c1ccc(C2CC2)c2ccccc12)Nc1ccc(C(=O)O)cc1Cl < 50 nM

CCOC(=O)CCNC(=O)c1ccc(NC(=O)CSc2nnc(Br)n2-c2ccc(C3CC3)c3ccccc23)c(Cl)c1 , same question. < 50 nM

---

Molecular target: mutant HIV reverse transcriptases (Human immunodeficiency virus type 1, UniProt P12497, Y768C, cells depend on it)
pEC50: −log10 of the molar value.
MEASURED_PARAMETER: pEC50

Record excerpt, results attached:
COc1ccc2c(C3CC3)ccc(-n3c(Br)nnc3SCC(=O)Nc3ccc(S(=O)(=O)O)cc3Cl)c2c1 [compound 113]    7.00 to 7.30
O=C(CSc1nnc(Br)n1-c1ccc(C2CC2)cc1OC(F)(F)F)Nc1ccc(S(=O)(=O)O)cc1Cl    < 7.00
Cc1cc(C2CC2)cc(Cl)c1-n1c(Br)nnc1SCC(=O)Nc1ccc(C(=O)O)cc1Cl    > 7.30
COC(=O)[C@H](CC(C)C)NC(=O)c1ccc(NC(=O)CSc2nnc(Br)n2-c2ccc(C3CC3)c3ccccc23)c(Cl)c1    > 7.30
CCOC(=O)N1CCC(NC(=O)c2ccc(NC(=O)CSc3nnc(Br)n3-c3ccc(CC)c4ccccc34)c(Cl)c2)CC1    > 7.30

Record request: pEC50 value, item Cc1ccc(-n2c(C)nnc2SCC(=O)Nc2ccc(S(N)(=O)=O)cc2Cl)c2c1CCCC2 > 7.30

Continue with CCOC(=O)CCNC(=O)c1ccc(NC(=O)CSc2nnc(Br)n2-c2ccc(C3CC3)c3ccccc23)c(Cl)c1 > 7.30

---

Biological target: mutant HIV reverse transcriptases (Human immunodeficiency virus type 1, UniProt P12497, Y775L, cells depend on it)
MEASURED_PARAMETER: EC50

Cc1cc(S(N)(=O)=O)ccc1NC(=O)CSc1nnc(C(F)F)n1-c1ccc(C)c2c1CCCC2    50 to 100 nM
Cc1ccc(-n2c(SCC(=O)Nc3ccc(S(=O)(=O)NCCN4CCOCC4)cc3Cl)nnc2C(F)F)c2c1CCCC2    50 to 100 nM
Cc1cc(S(N)(=O)=O)ccc1NC(=O)C(C)Sc1nnc(Br)n1-c1c(C)ccc2ccccc12 (stereo not drawn)    > 100 nM
CCc1ccc(-n2c(Br)nnc2SCC(=O)Nc2ccc(C(=O)O)cc2Cl)c2ccccc12    < 50 nM
O=C(CSc1nnc(Br)n1-c1cccc2c(OCC3CC3)cccc12)Nc1ccc(C(=O)O)cc1Cl    > 100 nM
NS(=O)(=O)c1ccc(NC(=O)CSc2nnc(C(F)F)n2-c2ccc(C3CCCC3)c3ccccc23)c(Cl)c1 [compound 68]    > 100 nM

Entry NS(=O)(=O)c1ccc(NC(=O)CSc2nnc(Br)n2-c2ccc(C3CCC3)c3ccccc23)c(Cl)c1 : reported EC50 = ? < 50 nM

---

Target: mutant HIV reverse transcriptases (Human immunodeficiency virus type 1, UniProt P12497, Y775L, cells depend on it)
pEC50: −log10 of the molar value.
MEASURED_PARAMETER: pEC50

O=C(CSc1nnc(Br)n1-c1ccc(C2CC2)c2ccccc12)Nc1ccc(C(=O)O)cc1Cl [compound 12]    > 7.30
Cc1cc(C2CC2)c2ccccc2c1-n1c(Br)nnc1SCC(=O)Nc1ccc(S(N)(=O)=O)cc1Cl [compound 50]    > 7.30

GET /values?readout=pEC50&item= CC(C)OC(=O)CNC(=O)c1ccc(NC(=O)CSc2nnc(Br)n2-c2ccc(C3CC3)c3ccccc23)c(Cl)c1 [compound 129] > 7.30

---

Target: mutant HIV reverse transcriptases (Human immunodeficiency virus type 1, UniProt P12497, Y775L, cells depend on it)
pEC50: −log10 of the molar value.
The compounds listed here are annotated with their pEC50.

Reference set, count: 4
CCc1ccc(-n2c(Br)nnc2SCC(=O)Nc2ccc(C(=O)NCCN(C)C)cc2Cl)c2ccccc12    > 7.30
CC[C@H](C)[C@H](NC(=O)c1ccc(NC(=O)CSc2nnc(Br)n2-c2ccc(C3CC3)c3ccccc23)c(Cl)c1)C(=O)O    < 7.00
CCc1ccc(-n2c(I)nnc2SCC(=O)Nc2ccc(S(N)(=O)=O)cc2Cl)c2ccccc12    > 7.30
CCOC(=O)N1CCC(NC(=O)c2ccc(NC(=O)CSc3nnc(Br)n3-c3ccc(CC)c4ccccc34)c(Cl)c2)CC1    > 7.30

Item CCc1ccc(-n2c(Br)nnc2SCC(=O)Nc2ccc(S(N)(=O)=O)cc2Br)c2ccccc12 has what recorded pEC50? > 7.30

Request: NS(=O)(=O)c1ccc(NC(=O)CSc2nnc(Br)n2-c2ccc(F)c3ccccc23)c(Cl)c1 > 7.30

---

Target: mutant HIV reverse transcriptases (Human immunodeficiency virus type 1, UniProt P12497, Y775L, cells depend on it)
pEC50: −log10 of the molar value.
MEASURED_PARAMETER: pEC50

CCc1ccc(-n2c(Br)nnc2SCC(=O)Nc2ccc(S(=O)(=O)O)cc2Br)c2ccccc12 [compound 20]    < 7.00

Fill in: pEC50 of O=C(CSc1nnc(Br)n1-c1ccc(C2CCC2)c2ccccc12)Nc1ccc(C(=O)O)cc1Cl [compound 26] is ___ > 7.30

Moving on to the next compound: Cc1cc(C2CC2)cc(Cl)c1-n1c(Br)nnc1SCC(=O)Nc1ccc(C(=O)O)cc1Cl [compound 28] > 7.30

Proceed to NS(=O)(=O)c1ccc(NC(=O)CSc2nnc(Br)n2-c2ccc(C3CC3)cc2)c(Cl)c1 [compound 78] < 7.00

Same read-out for NS(=O)(=O)c1ccc(NC(=O)CSc2nnc(C(F)F)n2-c2ccc(C3CCC3)c3ccccc23)c(Cl)c1 [compound 100] ? > 7.30

What about NS(=O)(=O)c1ccc(NC(=O)CSc2nnc(Br)n2-c2c(Cl)cc(C3CCC3)c3ccccc23)c(Cl)c1 [compound 91] ? > 7.30

Same again, this time with COc1ccc2c(C3CC3)ccc(-n3c(Br)nnc3SCC(=O)Nc3ccc(S(N)(=O)=O)cc3Cl)c2c1 [compound 72] > 7.30
